Reference source: patent US12459951B2

- Tested on: NCI-H358 (expressing KRas G12C mutant)
- Protocol text: Proliferation Assay (Cell Viability Assay)
- Assay type: cell-based
- Setup conditions: Homo sapiens; NCI-H358, NSCLC, KRas G12C; read-out: Proliferation assay IC50
Each entry below carries its reported IC50.

COc1cc(Nc2nc(-c3nccn3C)nn3cc(-c4ccn(C(C)C)n4)c(C)c23)ncn1 | < 150 nM

Now look at this entry.
Answer with reported IC50 of COc1ccnc(Nc2nc(-c3nccn3C)nn3cc(-c4ccn(C(C)C)n4)c(C)c23)c1
< 150 nM

* * *

- Test system: Erk1/2 phosphorylation
- Protocol text: Erk1/2 Phosphorylation Assay (western blot), Panc-1
- Type: cell-based, human
- Setup conditions: at 10 μM, * = activation
Measured metric: % inh of Erk1/2 phosphorylation in Panc-1

COc1cccc(-c2cn3nc(-c4nccn4C)nc(N[C@@H]4CC[C@H](OC)C4)c3c2-c2ccccc2)c1C (racemic) [Compound 271] | D (85-100% inhibition)
COc1cc(Nc2nc(-c3nccn3C)nn3cc(-c4ccn(C)n4)c(C)c23)ncc1-n1cnc(C)c1 [Compound 244] | 0 (0% inhibition)
Cc1c(-c2ccn(C)n2)cn2nc(-c3nccn3C)nc(O)c12 [Compound 172] | 0 (0% inhibition)
Cc1c(-c2ccn(C)n2)cn2nc(-c3nccn3C)nc(Nc3cc(OC(F)F)ccn3)c12 [Compound 128] | D* (85-100% activation)
Cc1c(-c2ccn(C(C)C)n2)cn2nc(-c3nccn3C)nc(Nc3nccc(OCCO)n3)c12 [Compound 121] | D* (85-100% activation)

# return % inh of Erk1/2 phosphorylation in Panc-1 of CO[C@H]1C[C@H](Nc2nc(-c3nccn3C)nn3cc(-c4cccc(CN)c4)c(-c4ccccc4)c23)C1 [Compound 204] (system: Erk1/2 phosphorylation)
D* (85-100% activation)

# return % inh of Erk1/2 phosphorylation in Panc-1 of Cc1c(-c2ccn(C)n2)cn2nc(-c3nccn3C)nc(Nc3cc(OC(F)F)n(C)n3)c12 [Compound 254] (system: Erk1/2 phosphorylation)
D* (85-100% activation)

# return % inh of Erk1/2 phosphorylation in Panc-1 of Cc1c(-c2ccn(C)n2)cn2nc(-c3nccn3C)nc(Nc3ncccn3)c12.Cl [Compound 115] (system: Erk1/2 phosphorylation)
C (50-84% inhibition)

# return % inh of Erk1/2 phosphorylation in Panc-1 of Cc1c(-c2ccn(C)n2)cn2nc(-c3nccn3C)nc(Nc3ccc(-n4ccnc4C)cn3)c12 [Compound 243] (system: Erk1/2 phosphorylation)
C* (46-84% activation)

* * *

- Tested on: KRas wild type
- Protocol text: Ras GTP Binding Domain Inhibition Assay (Ras Superfamily Assay)
- Setup conditions: 20 μM compound, with SOS
Measured metric: KRas wild type + SOS: % inh.

COc1ccc(Nc2nc(-c3nccn3C)nn3cc(-c4ccn(C(C)C)n4)c(C)c23)cn1 [Compound 71] | A (A = 1-25% inhibition)
COC(=O)c1c(-c2ccn(C)n2)cn2nc(-c3nccn3C)nc(N[C@H]3CC[C@H](OC)C3)c12 (racemic) [Compound 180] | A (A = 1-25% inhibition)
CO[C@H]1CC[C@@H](Nc2nc(-c3nccn3C)nn3cc(-c4ccn(C)n4)c(C)c23)C1 (racemic) [Compound 133] | 0 (0 = 0% inhibition)

* * *

Each entry below carries its reported KRas wild type: % inh..
- Tested on: KRas wild type
- Protocol text: Ras GTP Binding Domain Inhibition Assay (Ras Superfamily Assay)
- Setup conditions: at 20 μM, without SOS

Worked examples follow.
COc1ccc(F)c(-c2cn3nc(-c4nccn4C)nc(N[C@H]4C[C@H](OC)C4)c3c2-c2ccccc2)c1F | 0 (0 = 0% inhibition)
COc1cccc(-c2cn3nc(-c4nccn4C)nc(N[C@H]4C[C@H](OC)C4)c3c2-c2ccccn2)c1C | 0 (0 = 0% inhibition)

Answer with reported KRas wild type: % inh. of COc1cccc(-c2cn3nc(-c4nccn4C)nc(N[C@@H]4CC[C@H]4OC)c3c2-c2ccccc2)c1C (racemic)
0 (0 = 0% inhibition)

* * *

Each entry below carries its reported KRas G12C mutant: % inh..
- Test system: KRas G12C mutant
- Protocol text: Ras GTP Binding Domain Inhibition Assay (Ras Superfamily Assay)
- Setup conditions: 20 μM compound, without SOS

COc1cccc(Nc2nc(-c3nccn3C)nn3cc(-c4ccn(C(C)C)n4)c(C)c23)n1 [Compound 7] | 0 (0 = 0% inhibition)

Answer with reported KRas G12C mutant: % inh. of CO[C@H]1CC[C@@H](Nc2nc(-c3nccn3C)nn3cc(-c4ccn(C(C)C)n4)c(C)c23)C1 (racemic) [Compound 1]
0 (0 = 0% inhibition)

* * *

- System: KRas wild type
- Protocol text: Ras GTP Binding Domain Inhibition Assay (Ras Superfamily Assay)
- Setup conditions: 20 μM compound, with SOS
Measured metric: KRas wild type + SOS: % inh.

Worked examples follow.
COCC1CCN(c2nc(-c3nccn3C)nn3cc(-c4ccn(C(C)C)n4)c(C)c23)C1 (racemic) | 0 (0 = 0% inhibition)
CO[C@H]1CC[C@H](Nc2nc(-c3nccn3C)nn3cc(-c4ccn(C)n4)c(C(=O)NCC(F)(F)F)c23)C1 (racemic) | A (A = 1-25% inhibition)
COc1cccc(Nc2nc(-c3nccn3C)nn3ccc(C)c23)n1 | 0 (0 = 0% inhibition)
CO[C@H]1CC[C@H](Nc2nc(-c3nccn3C)nn3cc(-c4ccn(C)n4)c(C(=O)NC4CC4)c23)C1 (racemic) | A (A = 1-25% inhibition)

Now look at this entry.
Answer with reported KRas wild type + SOS: % inh. of COc1ncccc1Nc1nc(-c2nccn2C)nn2cc(-c3ccn(C(C)C)n3)c(C)c12
0 (0 = 0% inhibition)

* * *

- Tested on: KRas G12D mutant
- Protocol text: Ras GTP Binding Domain Inhibition Assay (Ras Superfamily Assay)
- Setup conditions: 20 μM compound, without SOS
Measured metric: KRas G12D mutant: % inh.

COc1cccc(Nc2nc(-c3nccn3C)nn3ccc(-c4ccccc4)c23)n1 [Compound 40] | 0 (0 = 0% inhibition)
Cc1c(-c2ccn(C(C)C)n2)cn2nc(-c3nccn3C)nc(Nc3cc(C4CC4)no3)c12 [Compound 69] | A (A = 1-25% inhibition)
Cc1c(-c2ccn(C3CC3)n2)cn2nc(-c3nccn3C)nc(O)c12 [Compound 134] | A (A = 1-25% inhibition)
COC[C@@H]1CC[C@@H]1CNc1nc(-c2nccn2C)nn2cc(-c3ccn(C(C)C)n3)c(C)c12 (racemic) [Compound 3] | 0 (0 = 0% inhibition)

* * *

- Test target: Rho-A (Homo sapiens, UniProt P61586)
- Construct: made in house
- Sequence (P61586 whole entry): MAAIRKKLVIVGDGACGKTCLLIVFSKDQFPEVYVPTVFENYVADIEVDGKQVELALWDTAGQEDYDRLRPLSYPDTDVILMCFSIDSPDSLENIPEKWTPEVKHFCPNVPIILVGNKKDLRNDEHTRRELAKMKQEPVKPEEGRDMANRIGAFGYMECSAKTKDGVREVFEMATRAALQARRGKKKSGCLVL
- Protocol text: Ras GTP Binding Domain Inhibition Assay (Ras Superfamily Assay)
- Setup conditions: read-out: Rho-A: % inh..
Measured metric: inhibition at 20 µM

Worked examples follow.
COC1CCCN(c2nc(-c3ccccn3)nn3cc(-c4ccn(C(C)C)n4)c(-c4ccccc4)c23)C1 (racemic) | 1 to 25%
Cc1c(-c2ccn(C(C)C)n2)cn2nc(-c3nccn3C)nc(Nc3ccncc3)c12 | 0%
Cc1c(-c2ccn(C(C)C)n2)cn2nc(-c3nccn3C)nc(Nc3cnccn3)c12 | 26 to 49%
COC1CCCN(c2nc(-c3ccccn3)nn3cc(-c4ccn(C(C)C)n4)c(C)c23)C1 (racemic) | 0%
COc1cccc(-c2cn3nc(-c4nccn4C)nc(N[C@H]4C[C@H](OC)C4)c3c2-c2ccccc2)c1Cl | 1 to 25%
COc1cccc(-c2cn3nc(-c4nccn4C)nc(N[C@H]4C[C@H](OC)C4)c3c2-c2ccccc2)c1F | 1 to 25%
COc1cc(-c2cn3nc(-c4nccn4C)nc(Nc4cc(OC)ncn4)c3c2C)ccn1 | 50 to 75%
COC[C@@H]1CC[C@@H]1CNc1nc(-c2nccn2C)nn2cc(-c3ccn(C(C)C)n3)c(C)c12 (racemic) | 0%

Answer with reported inhibition at 20 µM of COc1cc(Nc2nc(-c3nccn3C)nn3cc(-c4cccc(OC)n4)c(C)c23)ncn1
76 to 100%

Answer with reported inhibition at 20 µM of COC[C@@H]1CC[C@@H]1CNc1nc(-c2nccn2C)nn2cc(-c3ccn(C(C)C)n3)c(-c3ccccc3)c12 (racemic)
1 to 25%

Answer with reported inhibition at 20 µM of COc1cc(Nc2nc(-c3nccn3C)nn3cc(-c4ccn(C(C)C)n4)c(C)c23)ncn1
76 to 100%

Answer with reported inhibition at 20 µM of Cc1ccn2nc(-c3nccn3C)nc(N)c12.O=C(O)C(F)(F)F [Compound 37, trifluoroacetic acid salt]
0%

Answer with reported inhibition at 20 µM of COc1cccc(Nc2nc(-c3nccn3C)nn3cc(-c4ccn(C(C)C)n4)c(-c4ccccc4)c23)n1
1 to 25%

Answer with reported inhibition at 20 µM of Cc1c(-c2ccn(C(C)C)n2)cn2nc(-c3nccn3C)nc(Nc3cc(C4CC4)n[nH]3)c12
76 to 100%

Answer with reported inhibition at 20 µM of COc1ccnc(Nc2nc(-c3nccn3C)nn3cc(-c4ccn(C(C)C)n4)c(C)c23)n1
76 to 100%
